# assay_name: Aqueous solubility of the compound at […] under shaking condition for 24 hrs by UV absorbance based analysis
# Format: physicochemical
# test_parameters: aqueous
value_kind: solubility at 24 h (µM)
Numeric only. Scale: µM

Query (compound): CCC1N=C(c2ccccc2F)c2cc(Br)ccc2-n2cnc(C(=O)O)c21 (racemic) ; field requested: solubility at 24 h
77600

Name the recorded solubility at 24 h for CCC1N=C(c2ccccc2F)c2cc(Br)ccc2NC1=O (racemic) .
397

I have this compound here, CCOC(=O)c1ncn2c1C(CC)N=C(c1ccccc1F)c1cc(Br)ccc1-2 (racemic) , and I need its recorded solubility at 24 h.
417

* * *

# system_under_test: GABA-A receptor; anion channel (Rattus norvegicus) (UniProt O09028+P15431+P18506+P18508+P19969+P20236+P23574+P23576+P28471+P28473+P30191+P62813+P63079+P63138+Q91ZM7+Q9ES14)
# assay_name: Displacement of [3H]flunitrazepam from GABAA receptor in rat brain extract at 10 uM relative to control
# Type: tissue-based
Exercise: for every item that follows, state its recorded Activity.
Give the value in % but do not write % after it.

What value of Activity has been recorded for this entry: CCC1N=C(c2ccccc2F)c2cc(Br)ccc2NC1=O (racemic)
95

// returns reported Activity for input O=C1Nc2ccc(Br)cc2C(c2ccccc2F)=NC12CC2
97

Fill in the blank: the reported Activity of CCC1N=C(c2ccccc2F)c2cc(Br)ccc2-n2cnc(C(=O)O)c21 (racemic) is ____.
102

// query Activity value for entry CCOC(=O)c1ncn2c1C1(CCCCC1)N=C(c1ccccc1F)c1cc(Br)ccc1-2
74

# Activity lookup, item CCOC(=O)c1ncn2c1C(CC)N=C(c1ccccc1F)c1cc(Br)ccc1-2 (racemic)
61

Need Activity of CCOC(=O)c1ncn2c1C1(CC1)N=C(c1ccccc1F)c1cc(Cl)ccc1-2 , thanks.
34

Query: Activity; subject: CCOC(=O)c1ncn2c1C1(CC1)N=C(c1ccccc1F)c1cc(C3CC3)ccc1-2
22

Request the reported Activity associated with O=C(O)c1ncn2c1C1(CCCCC1)N=C(c1ccccc1F)c1cc(Br)ccc1-2
24

Looking for the measured Activity of O=C(O)c1ncn2c1C1(CCC1)N=C(c1ccccc1F)c1cc(Br)ccc1-2 , can you help?
59

What value of Activity has been recorded for this entry: CCOC(=O)c1ncn2c1C1(CC1)N=C(c1ccccc1F)c1cc(Br)ccc1-2
94

* * *

# assay_name: Aqueous solubility of the compound at […] under shaking condition for 24 hrs by UV absorbance based analysis
# Format: physicochemical
# test_parameters: buffer, 24 h
Answer each item with its documented solubility.
Write the number in µM without appending the unit.

Need solubility of O=C1Nc2ccc(Br)cc2C(c2ccccc2F)=NC12CCCCC2 , thanks.
94

I have this compound here, O=C(O)c1ncn2c1C1(CCCC1)N=C(c1ccccc1F)c1cc(Br)ccc1-2 , and I need its recorded solubility.
46700

What value of solubility has been reported for the following compound? O=C(O)c1ncn2c1C1(CC1)N=C(c1ccccc1F)c1cc(Cl)ccc1-2
36200

State the recorded solubility for this entry: CCOC(=O)c1ncn2c1C1(CC1)N=C(c1ccccc1F)c1cc(Br)ccc1-2
141

Value lookup for solubility; key = CCOC(=O)c1ncn2c1C(C)(C)N=C(c1ccccc1F)c1cc(Br)ccc1-2
103

Reported solubility, compound C#Cc1ccc2c(c1)C(c1ccccc1F)=NC1(CC1)c1c(C(=O)O)ncn1-2 : ____
40300

I would be grateful if you could share the reported solubility for CC1(C)N=C(c2ccccc2F)c2cc(Br)ccc2-n2cnc(C(=O)O)c21 .
4400

Give its solubility value. Item: O=C(O)c1ncn2c1C1(CCC1)N=C(c1ccccc1F)c1cc(Br)ccc1-2
58700

Item under review: CCOC(=O)c1ncn2c1C1(CCCCC1)N=C(c1ccccc1F)c1cc(Br)ccc1-2 . Reported solubility?
141

Quick one: solubility for CCOC(=O)c1ncn2c1C1(CCCC1)N=C(c1ccccc1F)c1cc(Br)ccc1-2 ?
144

Source: ChEMBL document CHEMBL5331136
